# Tested on: A549 NSCLC
# METHOD DESCRIPTION: NCI tumour cell line growth inhibition, 48 h
Recorded TGI, one value per entry.

[Q] # input compound: `O=S(=O)(O)C(=Nc1cccc(Cc2ccccc2)c1)Nc1cccc(Cc2ccccc2)c1` ; wanted: its TGI
[A] 51.9 µM

[Q] Another compound: `Nc1ccc2c(SCc3ccc([N+](=O)[O-])cc3)c3ccccc3nc2c1`
[A] 48.9 µM

[Q] Another compound: `O=C(O)c1cc2ccc3ccccc3c2oc1=O`
[A] > 100 µM

[Q] Another compound: CC(=O)OCC1OC(c2nc3ccccc3s2)=CC(OC(C)=O)C1OC(C)=O (stereo not drawn)
[A] > 100 µM

[Q] Another compound: `O=C1C(N2CC2)=C(N2CC2)C(=O)C(N2CC2)=C1N1CC1`
[A] 0.428 µM

Others:
[Q] # input compound: O=C1c2ccccc2OP(=O)(OCC(F)(F)F)OC1(C(F)(F)F)C(F)(F)F (stereo not drawn) ; wanted: its TGI
[A] > 100 µM

[Q] Another compound: COC1OC(CBr)C(OC(=O)c2ccccc2)C(O)C1Br (stereo not drawn)
[A] > 100 µM

[Q] Another compound: `O=c1[nH]nc(NNc2ccccc2)c2nnn(C3CCCCC3)c12`
[A] > 100 µM

[Q] Another compound: CCC(C)C1=C(OC(C)=O)[N+]2([O-])Oc3ccc(-c4c(OC(C)=O)c(OC(C)=O)c(-c5ccc(OC(C)=O)cc5)c(OC(C)=O)c4OC(C)=O)cc3OC2(C(C)CC)C(=O)N1OC(C)=O (stereo not drawn)
[A] > 50 µM

[Q] Another compound: `CC1=CC(=O)c2ccccc2C1=O`
[A] 40.2 µM

[Q] Another compound: COc1cc(NC(C)CCCN)c2ncccc2c1 (stereo not drawn)
[A] > 100 µM

[Q] Another compound: `N#Cc1c(-c2ccc([N+](=O)[O-])cc2)c(C#N)c(=O)n(NS(=O)(=O)c2ccccc2)c1-c1ccccc1`
[A] > 100 µM

[Q] Another compound: `C=CCc1cccc2cc(C(=O)Nc3ccccc3)c(=N)oc12`
[A] > 100 µM

[Q] Another compound: `COc1ccc(-n2c(=O)[nH]n(C(C)=O)c2=O)cc1`
[A] > 100 µM

[Q] Another compound: `CN1CNc2nc(N)n(C)c(=O)c2C1`
[A] > 10 µM

[Q] Another compound: `c1ccc(CN2CCC3(CC2)SSC2(CCN(Cc4ccccc4)CC2)S3)cc1`
[A] > 100 µM

[Q] Another compound: `CCn1cnc(C[C@H](NC(=O)[C@@H](NC(=O)Nc2cc(C(F)(F)F)cc(C(F)(F)F)c2)C(C)C)C(=O)OC)c1`
[A] > 10 µM

[Q] Another compound: COC(=O)C(C#CCCCCC#CC(NC(=O)OCc1ccccc1)(C(=O)OC)C(F)(F)F)(NC(=O)OCc1ccccc1)C(F)(F)F (stereo not drawn)
[A] > 100 µM

[Q] Another compound: `CC(C)=CCC/C(=C/CC/C(=C\CCc1ccoc1)C(=O)O)C(=O)O`
[A] > 100 µM

###

Recorded TGI, one value per entry.
# Test system: LOX IMVI melanoma
# METHOD DESCRIPTION: NCI tumour cell line growth inhibition, 48 h

[Q] Field: TGI (LOX IMVI melanoma). Entry: `Cc1cccc(CP(Cc2cccc(C)c2)CC2(Cp3c4ccccc4c4ccccc43)COC2)c1`
[A] > 100 µM

Others:
[Q] Field: TGI (LOX IMVI melanoma). Entry: `COc1cc(Nc2c(C#N)cnc3cc(OCCCN4CCN(C)CC4)c(OC)cc23)c(Cl)cc1Cl`
[A] 2.75 µM

[Q] Another compound: `CC(=O)OC[C@]12CC[C@@H](C(=O)CBr)[C@@H]1[C@H]1CC[C@@H]3[C@@]4(C)CCCNC(C)(C)[C@@H]4CC[C@@]3(C)[C@]1(C)CC2`
[A] 3.31 µM

[Q] Another compound: `O=S(=O)(O)C(=Nc1cccc(Cc2ccccc2)c1)Nc1cccc(Cc2ccccc2)c1`
[A] 26.6 µM
